# CONDITIONS_USED: Ebola virus entry cell assay, ratio channel
The source made the active and inactive calls.
The reply should be one of these categories: active, inactive

Solved cases below.
CN1C(=O)C(O)N=C(c2ccccc2)c2cc(Cl)ccc21 (stereo unspecified): inactive
COc1cc([C@@H]2c3cc4c(cc3[C@@H](O[C@@H]3O[C@@H]5CO[C@@H](C)O[C@H]5[C@H](O)[C@H]3O)[C@H]3COC(=O)[C@H]23)OCO4)cc(OC)c1O: inactive
Cc1nnc(SCC2=C(C(=O)O)N3C(=O)[C@@H](NC(=O)Cn4cnnn4)[C@H]3SC2)s1: inactive

Write down the call the test reported for this compound. Item: O=C1CN(/N=C/c2ccc([N+](=O)[O-])o2)C(=O)N1 inactive

Record lookup: outcome of this test for Nc1nc(Cl)nc2c1ncn2[C@@H]1O[C@H](CO)[C@@H](O)[C@@H]1F ? inactive

Please let me know the test result on file for CCCC(C)(COC(N)=O)COC(N)=O . inactive

Identify the outcome logged in this assay for the compound shown: C[C@]12CC[C@@H]3c4ccc(OC(=O)N(CCCl)CCCl)cc4CC[C@H]3[C@@H]1CC[C@@H]2OP(=O)(O)O inactive

Record lookup: outcome of this test for NC(=O)COCCN1CCN(C(c2ccccc2)c2ccc(Cl)cc2)CC1 (stereo unspecified) ? inactive

Recorded call for C[C@@H]1O[C@@H](O[C@H]2CC[C@@]3(C)[C@H](CC[C@@H]4[C@H]3C[C@@H](O)[C@]3(C)[C@@H](C5=CC(=O)OC5)CC[C@]43O)C2)C[C@H](O)[C@@H]1O[C@H]1C[C@H](O)[C@H](O[C@H]2C[C@H](O)[C@@H](O)[C@@H](C)O2)[C@H](C)O1 (stereo in doubt) ? active

Recorded call for CCN(CC)CC#CCOC(=O)C(O)(c1ccccc1)C1CCCCC1 (stereo unspecified) ? inactive

Hi, sorry to bother you, what did the test record for CCN1CC(CCN2CCOCC2)C(c2ccccc2)(c2ccccc2)C1=O (stereo unspecified) ? inactive

Could you kindly confirm the outcome this assay logged for CC(=O)NCCCS(=O)(=O)O ? inactive

Just curious, what result did Nc1ccn([C@@H]2CS[C@H](CO)O2)c(=O)n1 get here? inactive

// return assay outcome for C=CCN1C[C@H](C(=O)N(CCCN(C)C)C(=O)NCC)C[C@@H]2c3cccc4[nH]cc(c34)C[C@H]21 active

Given COc1cc(C(=O)NS(=O)(=O)c2ccccc2C)ccc1Cc1cn(C)c2ccc(NC(=O)OC3CCCC3)cc12 , state the outcome it received in this test. inactive

Status in this test for CC[C@H]1OC(=O)[C@H](C)[C@@H](O[C@H]2C[C@@](C)(OC)[C@@H](O)[C@H](C)O2)C(C)[C@@H](O[C@@H]2O[C@H](C)C[C@H](N(C)C)[C@@H]2O)[C@](C)(OC)C[C@@H](C)C(=O)[C@H](C)[C@@H](O)[C@]1(C)O (stereo partly specified) ? active

###

# RUN_DESCRIPTION: Cell Viability - LYMP2-023 (AID 975);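 also: cellular ATP measured by luciferase luminescence as viability proxy; cells exposed to compound for 24 hours at 37 °C; plate controls were DMSO only for no effect and 92 µM tetraoctylammonium bromide control for full effect; nearly all actives have a fitted effect of over 55% in size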
# CONDITIONS_USED: LYMP2-023 lymphoblastoid cell viability; series mostly up to 92.2 µM
Results filed as inconclusive are left out. Activity calls are given as the source filed them. Calls come from the whole dose curve; as a rule, active = well fitted cell-killing curve with a large enough effect; inconclusive = small, poorly fitted or top-dose-only effect; inactive = flat fitted curve, though single readings scatter.
QUANTITY_NAME: outcome

C[C@]1(O)CC[C@H]2[C@@H]3CCC4=CC(=O)CC[C@]4(C)[C@@]3(F)[C@@H](O)C[C@@]21C: inactive
Nc1ccccc1: inactive
COc1cc(OC)c(OC)cc1C=O: inactive
Nc1ccccc1C(=O)O: inactive
COC(=O)C(c1ccccc1)C1CCCCN1 (centres undefined): inactive
Clc1ccc(C(c2ccc(Cl)cc2)C(Cl)(Cl)Cl)cc1: inactive

Fill in the blank: the reported outcome of CC(C)NC(C)C is ____. inactive

I would be grateful if you could share the reported outcome for C[C@]12CCC(=O)C=C1CC[C@@H]1[C@@H]2CC[C@]2(C)C(=O)CC[C@@H]12 . inactive

What value of measured outcome is listed for O=P1(N(CCCl)CCCl)NCCCO1 (centres undefined) ? inactive

###

# RUN_DESCRIPTION: qHTS of pediatric cancer cell lines to identify multiple opportunities for drug repurposing: Primary screen for control Hh wild type fibroblast cells (AID 1347106);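 also: % is scaled to controls: 0 for no effect and ±100 for the full control effect; a drop in luminescence marks cytotoxicity and a rise apparent proliferation; nearly all actives have a fitted effect of over 55% in size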
# CONDITIONS_USED: Hh wild-type fibroblast viability, CellTiter-Glo luminescence, 48 h; series mostly up to 46 µM
Inconclusive results are not listed. Active and inactive are the calls of the source. Calls come from the whole dose curve; as a rule, active = well fitted cell-killing curve with a large enough effect; inconclusive = small, poorly fitted or top-dose-only effect; inactive = flat fitted curve, though single readings scatter.
QUANTITY_NAME: outcome

Worked examples follow.
COC(=O)C(Cl)C(=O)OC: inactive
CCC1(c2ccc(N)cc2)CCC(=O)NC1=O (configuration not stated): inactive
Clc1ccc(C(c2ccc(Cl)cc2)C(Cl)(Cl)Cl)cc1: inactive
CN1C(=O)NC(=O)C(C)(C2=CCCCC2)C1=O (configuration not stated): inactive
CCCCC/C=C\C/C=C\C/C=C\C/C=C\CCCC(=O)NCC(=O)O: inactive
NC1=NC(=O)C(c2ccccc2)O1 (configuration not stated): inactive

Given the molecule O=C(O)CCCc1ccc(N(CCCl)CCCl)cc1 , what is its reported outcome? inactive

Reported outcome, molecule CC(C)(N)Cc1ccccc1Cl : ____ inactive

Consider the molecule CC(C)N(CCC(C(N)=O)(c1ccccc1)c1ccccn1)C(C)C (configuration not stated) and give its measured outcome. inactive

For the molecule shown here, [N-]=[N+]=CC(=O)OC[C@H](N)C(=O)O , give the reported outcome. inactive

Could you tell me which outcome is on file for COc1cccc([C@@]2(O)CCCC[C@@H]2CN(C)C)c1 ? inactive

Bench note: what outcome did O=C1OC(c2ccc(O)c(S(=O)(=O)O)c2)(c2ccc(O)c(S(=O)(=O)O)c2)c2c(Br)c(Br)c(Br)c(Br)c21 show? inactive

###

# RUN_DESCRIPTION: Cellular Toxicity (caspase-3) HUV-EC-C (AID 656);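 also: cells exposed to compound for 16 h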;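 as to caspase-3 activation: 0% = DMSO basal and 100% = 100 µM tamoxifen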
# CONDITIONS_USED: HUV-EC-C cells, caspase-3 activation (apoptosis); series mostly up to 92.2 µM
Activity calls are given as the source filed them. Calls come from the whole dose curve; as a rule, active = well fitted curve in the direction sought with a large enough effect; inconclusive = small, poorly fitted or top-dose-only effect, or another doubt; inactive = no such curve, though single readings can be large or run the other way.
Thanks in advance; please answer with one of these: active, inactive

Below, 5 compounds whose answers are already recorded.
Clc1ccc(C(c2ccc(Cl)cc2)C(Cl)(Cl)Cl)cc1: active
O=P1(N(CCCl)CCCl)NCCCO1 (stereo unspecified): inactive
Nc1ccccc1C(=O)O: inactive
CC(C)c1cccc(C(C)C)c1O: inactive
CCOC(=O)CC(SP(=S)(OC)OC)C(=O)OCC (stereo unspecified): inactive

Status in this test for C[C@]12CCC(=O)C=C1CC[C@@H]1[C@@H]2CC[C@@]2(C)[C@H]1CC[C@]2(C)O ? inactive

What is the recorded call for this compound in the test? CN1C[C@H](C(=O)N[C@]2(C)O[C@@]3(O)[C@@H]4CCCN4C(=O)[C@H](Cc4ccccc4)N3C2=O)C=C2c3cccc4[nH]cc(c34)C[C@H]21 inactive

# fetch the recorded call for Nc1ccccc1 here inactive

Entry CCC(C)(C)c1ccc(O)cc1 : call = ? inactive

Give the logged outcome of this assay for the following compound: C[C@]12CCC(=O)C=C1CC[C@@H]1[C@@H]2CC[C@]2(C)C(=O)CC[C@@H]12 inactive

Assay outcome for COP(=S)(OC)Oc1ccc(SC)c(C)c1 : what was it? inactive

###

# Tested on: TAB165
# RUN_DESCRIPTION: qHTS profiling for inhibitors of Plasmodium falciparum proliferation (AID 504749); also: nearly all actives have a fitted effect of over 60% in size
# CONDITIONS_USED: P. falciparum in erythrocytes, SYBR Green DNA, 72 h; series mostly up to 28.7 µM
Records with an inconclusive call do not appear. The source made the active and inactive calls. Calls follow the shape of the dose curve; as a rule, active = well fitted inhibition curve with a large enough effect; inconclusive = small, poorly fitted or top-dose-only effect; inactive = flat fitted curve, though single readings scatter.
Write down one outcome, taken from 1 for active, 0 for inactive

CN1C(=O)CCS(=O)(=O)C1c1ccc(Cl)cc1 (stereo not given): 0
CCC(C)(C)c1ccc(O)cc1: 0
O=C1c2ccccc2C(=O)C1C(=O)C(c1ccccc1)c1ccccc1: 0

For O=C1CN=C(c2ccccc2)c2cc([N+](=O)[O-])ccc2N1 , which call appears in the assay record? 0

Give the logged outcome of this assay for the following compound: O=C(O)CCCc1ccc(N(CCCl)CCCl)cc1 0

Short answer needed: outcome of this test for CN1C(=O)COc2c(C(=O)NC3CN4CCC3CC4)cc(Cl)cc21 (stereo not given) ? 0

What did this assay record as the result for CN1C(=O)C(O)N=C(c2ccccc2)c2cc(Cl)ccc21 (stereo not given) ? 0

Test call, this compound: CC(C)=CC1C(C(=O)OCN2C(=O)C3=C(CCCC3)C2=O)C1(C)C (stereo not given) 0

Test call, this compound: O=c1oc2ccccc2c(O)c1Cc1c(O)c2ccccc2oc1=O 0

Record request — test call for CC(C)(C)NCC(O)c1cc(Cl)c(N)c(C(F)(F)F)c1 (stereo not given) 1

###

// activity, negative = cell killing lookup, one value per entry
# RUN_DESCRIPTION: Drug repurposing screens with cells derived from glioblastoma tumor samples (AID 1345199); also: % is scaled to controls: 0 for no effect and ±100 for the full control effect; nearly all actives have a fitted effect of over 40% in size
# CONDITIONS_USED: GBM patient neurospheres viability, ATP luminescence, 48 h; at 91.6 µM (top of the series); tumour line B
Inconclusive results are not listed.
// return numeric value only (unit: %, not printed)

COc1cc(OC)c(OC)cc1C=O: -6.05
CN(C)CCc1c[nH]c2cccc(OP(=O)(O)O)c12: -11.6
CN[C@@H](C)Cc1ccccc1: -1.76
COc1ccc2c3c1O[C@H]1[C@H](O)CC[C@H]4[C@@H](C2)N(C)CC[C@@]341: -15.1
CCN[C@@H](C)Cc1cccc(C(F)(F)F)c1: 2.77

# input for lookup
Could you share which activity, negative = cell killing value was measured for CCN[C@H](C)Cc1cccc(C(F)(F)F)c1 ? -5.97
